Hey, just so you know, these numbers are from patent US20160032001A1.

# ASSAY_SYSTEM: T1, human RANKL protein (human, UniProt O14788 140-317, limits assumed)
# T1 sequence (looked up): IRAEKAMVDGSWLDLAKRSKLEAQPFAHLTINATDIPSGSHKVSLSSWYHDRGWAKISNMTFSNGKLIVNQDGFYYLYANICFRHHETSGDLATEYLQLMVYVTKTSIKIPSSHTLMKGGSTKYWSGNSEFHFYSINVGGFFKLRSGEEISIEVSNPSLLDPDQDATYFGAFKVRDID
# PROCEDURE_SUMMARY: competition ELISA: RANKL (0.5 ug/ml) pre-incubated with the antibody, then binding to coated RANK (8 ug/ml) detected; blocked partner RANK [table at the lower right]
Catalogue of IC50 values
Enter your answer as a number in µg/mL; do not include the unit.

BINDER	ASSAY_METRIC	MEASUREMENT_UNIT	RECORDED_NUMBER
humanized clone 23 antibody, VH 23HZD-1 HC with humanized VL 23 Vk (antibody, V domains shown, also called humanized 23 Vk; 23LHZD) VH: EVQLVESGGGLVQPGGSLRLSCAASGFSLSSDGMSWVRQAPGKGLEWIGYIYSGSSPYYANWAKGRFTISKDSSKNTVYLQMNSLRAEDTAVYFCARHGSGGGWYLDIWGPGTLVTVSS VL: DIQMTQSPSSLSASVGDRVTINCQASQTIGTNLAWYQQKPGKRPKLLIYAASTLPSGVPSRFSGSGSGTDFTLTISSLQPEDFATYYCQQAYSVGNVDNAFGGGTKVEIK	IC50	µg/mL	0.112
humanized clone EBI-51-22 anti-RANKL antibody (antibody, V domains shown, also called humanized EBI-51-22; humanized EBI51-22) VH: EVQLVESGGGLVQPGGSLRLSCAVSGFSLSTDVLSWVRQAPGKGLEWIGYTWSGGSTYYASWAKGRFTISKDSSKNTVYLQMNSPRAEDTAVYFCARGFNPFDPWGPGTLVTVSS VL: DIQMTQSPSSLSASVGDRVTIKCQASQNIGSNLAWYQQKPGKRPKLLIYRASTLASGVPSRFSGSGSGTDFTLTISSLQPEDFATYYCQQGYSAGNVDNNAFGGGTKVEIK	IC50	µg/mL	0.127
humanized clone 408 anti-RANKL antibody (antibody, V domains shown) VH: EVQLVESGGGLVQPGGSLRLSCAVSGFSLSTDVVSWVRQAPGKGLEWIGYTWNGGATFYASWAKGRFTFSKDSSKNTVYLQMNSPRAEDTAVYFCARGYNGMDPWGPGTLVTVSS VL: DIQMTQSPSSLSASVGDRVTIKCQASQNIGSNLAWYQQKPGKPPKLLISKASTLASGVPSRFSGSGSGTDFTLTISSLQPEDFATYYCQQGYTTKNVVNPFGGGTKVEIK	IC50	µg/mL	0.096
clone EBI-51-22 rabbit anti-RANKL antibody (antibody, V domains shown) VH: QSVEESGGRLVTPGTLLTLTCTVSGFSLSTDVLSWVRQAPGKGLEWIGYTWSGGSTYYASWAKGRFTISKTSSTTVDLKITSPTTEDTATYFCARGFNPFDPWGPGTLVTVSS VL: DMTQTPASVSDPVGGTVTIKCQASQNIGSNLAWYQQKPGQRPKLLIYRASTLASGVSSRFKGSGSGTQFTLTISDLECADAATYYCQQGYSAGNVDNNAFGGGTEVVVK	IC50	µg/mL	0.083
clone 408 rabbit anti-RANKL antibody (antibody, V domains shown) VH: QSVEESGGRLVTPGTPLTLTCTVSGFSLSTDVVSWVRQAPGKGLEWIGYTWNGGATFYASWAKGRFTFSKTSTTVDLKITSPTTEDTATYFCARGYNGMDPWGPGTLVTVSS VL: DMTQTPASVEAAVGGAVTIKCQASQNIGSNLAWYHQKPGQPPKLLISKASTLASGVPSRFKGSGSGTEFTLAISDLECADAATYYCQQGYTTKNVVNPFGGGTEVVVK	IC50	µg/mL	0.098

Looking up humanized clone 23 antibody, VH 23HZD-1 HC with humanized VL 23 Vkb, IgG2 (antibody, V domains shown, also called humanized 23 vkb; humanized 23 VKB) VH: EVQLVESGGGLVQPGGSLRLSCAASGFSLSSDGMSWVRQAPGKGLEWIGYIYSGSSPYYANWAKGRFTISKDSSKNTVYLQMNSLRAEDTAVYFCARHGSGGGWYLDIWGPGTLVTVSS VL: DIQMTQSPSSLSASVGDRVTINCQASQSIGSNLAWYQQKPGKRPKLLIYAASTLPSGVPSRFSGSGSGTDFTLTISSLQPEDFATYYCQQAYSVGNVDNAFGGGTKVEIK , I found its IC50 recorded as 0.081

IC50 recorded for this binder, clone 23 rabbit anti-RANKL antibody (antibody, V domains shown, also called RabMAb 23; parent 23 rabbit antibody) VH: QEQLKESGGGLVTPGGTLTLTCTASGFSLSSDGMSWVRQAPGKGLEWIGYIYSGSSPYYANWAKGRFTISKTSSTTVDLKMTSLTTEDTATYFCARHGSGGGWYLDIWGPGTLVTVSS VL: AYDMIQTPASVEVAVGGTVTINCQASQTIGTNLAWYQQKPGQRPKLLIYAASTLPSGVSSRFKGSGSGTQFTLTISDVECSDAATYYCQQAYSVGNVDNAFGGGTEVVVK , is 0.041
